Test system: K-562
experiment_description: Inhibition of cells growth by colorimetric assay (SRB)
details: Homo sapiens, K562, 48 h, read-out: LC50 K562
property_label: log10(CC50) (log10 of the value in µM)

| compound | log10(CC50) |
| --- | --- |
| COc1c(C)cc2c(c1O)[C@H]1N[C@@H](C2)[C@H](C#N)N2C1[C@@H]1SCC(NC(C)=O)C(=O)OC[C@H]2c2c3c(c(C)c(OC(C)=O)c21)OCO3 (some centres unmarked) | 0.98 |
| COC1=C(C)C(=O)C2=C(C1=O)[C@@H]1C3[C@@H]4SC[C@]5(NCCc6c5[nH]c5ccccc65)C(=O)OC[C@@H](c5c6c(c(C)c(OC(C)=O)c54)OCO6)N3[C@@H](C#N)[C@H](C2)N1C (some centres unmarked) | 0.15 |
| COc1c(C)cc2c(c1O)[C@@H]1C3[C@@H]4SC[C@]5(NCCc6c5[nH]c5ccccc65)C(=O)OC[C@@H](c5c6c(c(C)c(OC(C)=O)c54)OCO6)N3[C@@H](C#N)[C@H](C2)N1C (some centres unmarked) | -0.08 |
| C=CCN1[C@@H]2c3c(cc(C)c(OC)c3O)C[C@H]1[C@H](C#N)N1C2[C@@H]2SCC(NC(=O)C(F)(F)F)C(=O)OC[C@H]1c1c3c(c(C)c(OC(C)=O)c12)OCO3 (some centres unmarked) | 0.58 |
| C=CCN1[C@@H]2c3c(cc(C)c(OC)c3O)C[C@H]1[C@H](C#N)N1C2[C@@H]2SCC(N)C(=O)OC[C@H]1c1c3c(c(C)c(OC(C)=O)c12)OCO3 (some centres unmarked) | 1.19 |

###

System: PANC-1
experiment_description: Inhibition of cells growth by colorimetric assay (SRB)
details: Homo sapiens, PANC-1, 48 h, read-out: PANC-1 LC50
property_label: CC50 (µM)

| compound | study_system | measured_result |
| --- | --- | --- |
| C=CCN1[C@@H]2c3c(cc(C)c(OC)c3O)C[C@H]1[C@H](C#N)N1C2[C@@H]2SC[C@]3(NCCc4cc(OC(=O)OC(C)(C)C)c(OC)cc43)C(=O)OC[C@H]1c1c3c(c(C)c(OC(=O)CCCCCCC)c12)OCO3 (stereo partly drawn) | PANC-1 | 10.2 |
| COc1ccc2[nH]c3c(c2c1)CCN[C@]31CS[C@@H]2c3c(OC(C)=O)c(C)c4c(c3[C@H](COC1=O)N1C2[C@@H]2N[C@@H](Cc3cc(C)c(OC)c(O)c32)[C@@H]1C#N)OCO4 (stereo partly drawn) | PANC-1 | 12.8 |
| COC1=C(C)C(=O)C2=C(C1=O)C1C3[C@@H]4SCC(=O)C(=O)OC[C@@H](c5c6c(c(C)c(OC(C)=O)c54)OCO6)N3[C@@H](O)[C@H](C2)N1C (stereo partly drawn) | PANC-1 | 14.9 |
| COc1c(C)cc2c(c1O)[C@H]1N[C@@H](C2)[C@H](C#N)N2C1[C@@H]1SC[C@]3(NCCc4c3[nH]c3ccc(O)cc43)C(=O)OC[C@H]2c2c3c(c(C)c(OC(C)=O)c21)OCO3 (stereo partly drawn) | PANC-1 | 13.1 |
| CCC(=O)NC1CS[C@@H]2c3c(OC(C)=O)c(C)c4c(c3[C@H](COC1=O)N1C2[C@@H]2N[C@@H](Cc3cc(C)c(OC)c(O)c32)[C@@H]1C#N)OCO4 (stereo partly drawn) | PANC-1 | 4.51 |
| C=CCN1[C@@H]2c3c(cc(C)c(OC)c3OC(=O)OC(C)(C)C)C[C@H]1[C@H](C#N)N1C2[C@@H]2SC[C@]3(NCCc4cc(OC(=O)OC(C)(C)C)c(OC)cc43)C(=O)OC[C@H]1c1c3c(c(C)c(OC(C)=O)c12)OCO3 (stereo partly drawn) | PANC-1 | 10 |
| C=CCN1[C@@H]2c3c(cc(C)c(OC)c3O)C[C@H]1[C@H](C#N)N1C2[C@@H]2SC[C@]3(NCCc4cc(OC(=O)OC(C)(C)C)c(OC)cc43)C(=O)OC[C@H]1c1c3c(c(C)c(OC(C)=O)c12)OCO3 (stereo partly drawn) | PANC-1 | 11.1 |
| COc1cc2c(cc1O)CCN[C@]21CS[C@@H]2c3c(OC(=O)/C=C/c4ccccc4)c(C)c4c(c3[C@H](COC1=O)N1C2[C@@H]2N[C@@H](Cc3cc(C)c(OC)c(O)c32)[C@@H]1O)OCO4 (stereo partly drawn) | PANC-1 | 1.44 |
| COc1c(C)cc2c(c1O)[C@H]1N[C@@H](C2)[C@H](O)N2C1[C@@H]1SC[C@]3(NCCc4c3[nH]c3ccccc43)C(=O)OC[C@H]2c2c3c(c(C)c(OC(C)=O)c21)OCO3 (stereo partly drawn) | PANC-1 | 4.27 |

###

System: IGROV-1
experiment_description: Inhibition of cells growth by colorimetric assay (SRB)
details: Homo sapiens, IGROV-1, 48 h, read-out: GI50 IGROV

| compound | study_system | unit_spec | GI50 |
| --- | --- | --- | --- |
| C=CCN1[C@@H]2c3c(cc(C)c(OC)c3O)C[C@H]1[C@H](C#N)N1C2[C@@H]2SCC(NC(=O)C(F)(F)F)C(=O)OC[C@H]1c1c3c(c(C)c(OC(C)=O)c12)OCO3 (stereo partly drawn) | IGROV-1 | µM | 0.66 |
| COc1c(C)cc2c(c1O)[C@H]1N[C@@H](C2)[C@H](C#N)N2C1[C@@H]1SCC(NC(C)=O)C(=O)OC[C@H]2c2c3c(c(C)c(OC(C)=O)c21)OCO3 (stereo partly drawn) | IGROV-1 | µM | 0.000695 |
| C=CCOc1c(C)c2c(c3c1CC1[C@H]4c5c(cc(C)c(OC)c5O)C[C@@H]([C@H](C#N)N1[C@H]3CN)N4C)OCO2 (stereo partly drawn) | IGROV-1 | µM | 0.901 |
| C=CCN1[C@@H]2c3c(cc(C)c(OC)c3OC(=O)/C=C/c3ccccc3)C[C@H]1[C@H](C#N)N1C2[C@@H]2SCC(NC(=O)C(F)(F)F)C(=O)OC[C@H]1c1c3c(c(C)c(OC(C)=O)c12)OCO3 (stereo partly drawn) | IGROV-1 | µM | 2.19 |
| C=CCN1[C@@H]2c3c(cc(C)c(OC)c3O)C[C@H]1[C@H](C#N)N1C2[C@@H]2SCC(N)C(=O)OC[C@H]1c1c3c(c(C)c(OC(C)=O)c12)OCO3 (stereo partly drawn) | IGROV-1 | µM | 0.225 |
| COc1c(C)cc2c(c1O)[C@@H]1C3[C@@H]4SC[C@]5(NCCc6c5[nH]c5ccccc65)C(=O)OC[C@@H](c5c6c(c(C)c(OC(C)=O)c54)OCO6)N3[C@@H](C#N)[C@H](C2)N1C (stereo partly drawn) | IGROV-1 | µM | 0.0191 |
| C=CCOc1c(C)c2c(c3c1CC1[C@H]4c5c(cc(C)c(OC)c5O)C[C@@H]([C@H](C#N)N1[C@H]3CO)N4C)OCO2 (stereo partly drawn) | IGROV-1 | µM | 0.926 |
| CCCCCCCCCCCCCCCC(=O)NC1CS[C@@H]2c3c(OC(C)=O)c(C)c4c(c3[C@H](COC1=O)N1C2[C@@H]2N[C@@H](Cc3cc(C)c(OC)c(O)c32)[C@@H]1C#N)OCO4 (stereo partly drawn) | IGROV-1 | µM | 1.97 |
| COc1c(C)cc2c(c1O)[C@H]1N[C@@H](C2)[C@H](C#N)N2C1[C@@H]1SCC(NC(=O)C(F)(F)F)C(=O)OC[C@H]2c2c3c(c(C)c(OC(C)=O)c21)OCO3 (stereo partly drawn) | IGROV-1 | µM | 0.000413 |

###

System: A-549
experiment_description: cells
details: Homo sapiens, A549, 48 h, read-out: A549 LC50
Labelling: CC50 reported below 4 µM becomes Met; at or above becomes Not met.

| molecule | qualitative_label |
| --- | --- |
| C=CCN1[C@@H]2c3c(cc(C)c(OC)c3OC(=O)OC(C)(C)C)C[C@H]1[C@H](C#N)N1C2[C@@H]2SC[C@]3(NCCc4cc(OC(=O)OC(C)(C)C)c(OC)cc43)C(=O)OC[C@H]1c1c3c(c(C)c(OC(C)=O)c12)OCO3 (some centres unmarked) [compound 45] | Met |
| C=CCN1[C@@H]2c3c(cc(C)c(OC)c3O)C[C@H]1[C@H](C#N)N1C2[C@@H]2SC[C@]3(NCCc4c3[nH]c3ccc(C)cc43)C(=O)OC[C@H]1c1c3c(c(C)c(OC(C)=O)c12)OCO3 (some centres unmarked) [compound 58] | Met |
| COC1=C(C)C(=O)C2=C(C1=O)C1C3[C@@H]4SCC(=O)C(=O)OC[C@@H](c5c6c(c(C)c(OC(C)=O)c54)OCO6)N3[C@@H](O)[C@H](C2)N1C (some centres unmarked) [Et-594-quinone] | Not met |
| C=CCN1[C@@H]2c3c(cc(C)c(OC)c3O)C[C@H]1[C@H](C#N)N1C2[C@@H]2SC[C@]3(NCCc4cc(OC(=O)OC(C)(C)C)c(OC)cc43)C(=O)OC[C@H]1c1c3c(c(C)c(OC(C)=O)c12)OCO3 (some centres unmarked) [compound 44] | Met |
| COc1cc2c(cc1O)CCN[C@]21CS[C@@H]2c3c(OC(C)=O)c(C)c4c(c3[C@H](CNC1=O)N1C2[C@H]2c3c(cc(C)c(OC)c3O)CC([C@@H]1O)N2C)OCO4 (some centres unmarked) [compound 77] | Met |
